# Experimental Details: Metabolic stability in rat hepatocytes (rHep)
# Condition Details: n = 1 or geometric mean of n = 2-3
Property: rHep CLint (μL/min/1E6)
Provide the reading as a plain figure in μL/min/1E6.

So what does the record say about rHep CLint for C[C@@H]1CN(c2ccc3nccc(C(=O)NCC(=O)N4CSC[C@H]4C#N)c3c2)C[C@H]1C (single isomer, unassigned) [Example 225] ?
37

So what does the record say about rHep CLint for N#C[C@@H]1CSCN1C(=O)CNC(=O)c1ccnc2ccc(N3CCO[C@H](C(F)(F)F)C3)cc12 ?
13

----------
Here's a batch of compounds along with measured IC50 for human Fibroblast activation protein alpha (hFAP) (Homo sapiens (Human)).
Provide the reading as a plain figure in nM.

Below: 3 compounds and their reported IC50.
1. N#C[C@@H]1CSCN1C(=O)CNC(=O)c1ccnc2ccc(-n3ccc(C(F)(F)F)n3)cc12
0.1
2. N#C[C@@H]1CSCN1C(=O)CNC(=O)c1ccnc2ccc(-n3ccc4c3CCCC4)cc12
0.11
3. N#C[C@@H]1CSCN1C(=O)CNC(=O)c1ccnc2ccc(N3CCC(=O)CC3)cc12
0.078

Now consider a different compound.
Find the measured IC50: item CC1(C)COC12CN(c1ccc3nccc(C(=O)NCC(=O)N4CSC[C@H]4C#N)c3c1)C2 , target or system human Fibroblast activation protein alpha (hFAP) (Homo sapiens (Human)). Also: hFAP 2.4 pM.
0.047

----------
# Experimental Details: Metabolic stability in human hepatocytes (hHep)
# Type: in vitro ADME
# Condition Details: n = 1 or geometric mean of n = 2
A collection of compounds and their measured hHep CLint

Below: 10 compounds and their reported hHep CLint.
1) N#C[C@@H]1CSCN1C(=O)CNC(=O)c1ccnc2ccc(N3CCO[C@H](C(F)(F)F)C3)cc12
<1 μL/min/1E6
2) N#C[C@@H]1CSCN1C(=O)CNC(=O)c1ccnc2ccc(N3CC(C(F)F)C3)cc12
2.6 μL/min/1E6
3) CS(=O)(=O)C[C@@H]1CN(c2ccc3nccc(C(=O)NCC(=O)N4CSC[C@H]4C#N)c3c2)CCO1
<1 μL/min/1E6
4) CC1(C)COC12CN(c1ccc3nccc(C(=O)NCC(=O)N4CSC[C@H]4C#N)c3c1)C2
3.7 μL/min/1E6
5) C[C@@H]1CN(c2ccc3nccc(C(=O)NCC(=O)N4CSC[C@H]4C#N)c3c2)CCO1
<1 μL/min/1E6
6) N#C[C@@H]1CSCN1C(=O)CNC(=O)c1ccnc2ccc(N3CCC4(CC3)OCCO4)cc12
<1 μL/min/1E6
7) N#C[C@@H]1CSCN1C(=O)CNC(=O)c1ccnc2ccc(N3C4CCC3COC4)cc12
1.8 μL/min/1E6
8) COC1(C)CCN(c2ccc3nccc(C(=O)NCC(=O)N4CSC[C@H]4C#N)c3c2)CC1
2.7 μL/min/1E6
9) COCC1(C)CN(c2ccc3nccc(C(=O)NCC(=O)N4CSC[C@H]4C#N)c3c2)C1
<1 μL/min/1E6
10) CO[C@@H]1CN(c2ccc3nccc(C(=O)NCC(=O)N4CSC[C@H]4C#N)c3c2)[C@H]1C
<1 μL/min/1E6

So what does the record say about hHep CLint for CC(=O)N1CC2(C1)CN(c1ccc3nccc(C(=O)NCC(=O)N4CSC[C@H]4C#N)c3c1)C2 ?
<1 μL/min/1E6

So what does the record say about hHep CLint for C[C@H]1CN(c2ccc3nccc(C(=O)NCC(=O)N4CSC[C@H]4C#N)c3c2)CCO1 ?
<1 μL/min/1E6

So what does the record say about hHep CLint for N#C[C@@H]1CSCN1C(=O)CNC(=O)c1ccnc2ccc(N3CC(CF)C3)cc12 ?
<1.5 μL/min/1E6

So what does the record say about hHep CLint for CC1(C)CN(c2ccc3nccc(C(=O)NCC(=O)N4CSC[C@H]4C#N)c3c2)CCO1 ?
<1 μL/min/1E6

So what does the record say about hHep CLint for N#C[C@@H]1CSCN1C(=O)CNC(=O)c1c(F)cnc2ccc(N3CCOCC3)cc12 ?
<1 μL/min/1E6

So what does the record say about hHep CLint for CC1(C)Cc2c(-c3ccc4nccc(C(=O)NCC(=O)N5CSC[C@H]5C#N)c4c3)cnn2C1 ?
1.6 μL/min/1E6

So what does the record say about hHep CLint for N#C[C@@H]1CSCN1C(=O)CNC(=O)c1ccnc2ccc(N3CC4(COC4)C3)cc12 ?
<1 μL/min/1E6

So what does the record say about hHep CLint for CC1(CS(C)(=O)=O)CN(c2ccc3nccc(C(=O)NCC(=O)N4CSC[C@H]4C#N)c3c2)C1 ?
<1 μL/min/1E6

So what does the record say about hHep CLint for N#C[C@@H]1CSCN1C(=O)CNC(=O)c1ccnc2ccc(N3CCCCO3)cc12 ?
<1 μL/min/1E6

So what does the record say about hHep CLint for N#C[C@@H]1CSCN1C(=O)CNC(=O)c1ccnc2ccc(N3CC(F)C3)cc12 ?
<1 μL/min/1E6

So what does the record say about hHep CLint for N#C[C@@H]1CSCN1C(=O)CNC(=O)c1ccnc2ccc(N3C[C@@H](F)[C@@H](F)C3)cc12 ?
1.7 μL/min/1E6

So what does the record say about hHep CLint for CS(=O)(=O)C[C@H]1CN(c2ccc3nccc(C(=O)NCC(=O)N4CSC[C@H]4C#N)c3c2)CCO1 ?
<1 μL/min/1E6

So what does the record say about hHep CLint for C[C@@H]1COC[C@H](C)N1c1ccc2nccc(C(=O)NCC(=O)N3CSC[C@H]3C#N)c2c1 ?
4.6 μL/min/1E6

Attribution: patent US20230312550A1
